Target: Human recombinant FAP (Homo sapiens, UniProt Q12884)
Sequence (Q12884 whole entry): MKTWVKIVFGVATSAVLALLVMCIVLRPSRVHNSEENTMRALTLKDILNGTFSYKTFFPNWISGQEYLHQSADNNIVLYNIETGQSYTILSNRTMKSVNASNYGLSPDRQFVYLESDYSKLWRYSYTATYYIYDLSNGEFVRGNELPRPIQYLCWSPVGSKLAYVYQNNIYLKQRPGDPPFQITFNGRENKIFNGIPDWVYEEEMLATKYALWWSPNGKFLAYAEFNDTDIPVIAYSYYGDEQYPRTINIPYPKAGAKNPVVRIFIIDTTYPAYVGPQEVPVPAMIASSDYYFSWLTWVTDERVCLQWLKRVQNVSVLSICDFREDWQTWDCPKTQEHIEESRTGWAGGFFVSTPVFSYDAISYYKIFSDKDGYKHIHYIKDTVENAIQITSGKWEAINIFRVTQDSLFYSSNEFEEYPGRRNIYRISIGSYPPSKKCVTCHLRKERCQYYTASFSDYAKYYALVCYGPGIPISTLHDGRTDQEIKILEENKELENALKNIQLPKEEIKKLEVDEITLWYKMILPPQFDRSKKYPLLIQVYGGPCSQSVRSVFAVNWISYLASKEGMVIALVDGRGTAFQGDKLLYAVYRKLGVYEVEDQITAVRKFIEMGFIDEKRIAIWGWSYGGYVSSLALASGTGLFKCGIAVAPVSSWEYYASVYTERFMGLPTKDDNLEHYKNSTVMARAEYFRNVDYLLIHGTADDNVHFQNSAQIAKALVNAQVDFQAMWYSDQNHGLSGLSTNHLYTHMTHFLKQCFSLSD
Experiment: FRET-based FAP protease activity assay
Format: biochemical
Design: purchased R&D systems 3715-SE
Details: pIC50 Category (Activity), FRET substrate, 37° C.
Numbered stars: 1 amine (or outer) side, 2 acyl side, 3 side chain; on linkers, the order of the positions; unused ones are H or OH. Bridge positions count the residues as written; N and C are the ends. Square brackets hold non-standard residues; d marks the D form. Peptide text beside a SMILES is read from it. * marks the point of attachment. X24 = NCCNCC(CNCCN)C(=O)N[C@@H](CCC(=O)NC[C@H](O)[C@@H](O)[C@H](O)[C@H](O)CO)C(=O)NCCCOCCOCCOCCCN*; X12 = NCCNCC(CNCCN)C(=O)NCCCOCCOCCOCCCN*; mXylylene = c1cc(C[*:1])cc(C[*:2])c1; 4Pal = N[C@@H](Cc1ccncc1)C(=O)O; Suc = O=C(CCC(=O)[*:2])[*:1]; Nle = CCCC[C@H](N)C(=O)O
readout_label: IC50

I am curious: what IC50 value has been reported for CCCCCC(=O)N[C@H]1CSCc2cc(CSCCNC(=O)C(CNCCN)CNCCN)cc(c2)CSC[C@@H](C(=O)O)NC(=O)[C@H](Cc2ccccc2)NC(=O)[C@H](CCC(N)=O)NC(=O)[C@H]([C@@H](C)O)NC(=O)[C@@H]2CCCN2C(=O)[C@@H]2CCCN2C1=O [3BP-4063] ?
< 10 nM

Which measured IC50 value corresponds to CCCCCC(=O)N[C@@H]1CSCc2cc(CSCCNC(=O)CN3CCN(CC(=O)O)CCN(CC(=O)O)CCN(CC(=O)O)CC3)cc(c2)CSC[C@H](C(=O)O)NC(=O)[C@H](Cc2ccccc2)NC(=O)[C@H](CCC(N)=O)NC(=O)[C@H]([C@@H](C)O)NC(=O)[C@@H]2CCCN2C(=O)[C@@H]2CCCN2C1=O [3BP-4110] ?
10 to 79.4 nM

Fill in the blank: the reported IC50 of CCCCCC(=O)N[C@H]1CSCc2cc(CSCCNC(=O)CN3CCN4CCN5CCN(CC3)CC(=O)[O][Ga]([O]C(=O)C4)[O]C(=O)C5)cc(c2)CSC[C@@H](C(=O)O)NC(=O)[C@H](Cc2ccccc2)NC(=O)[C@H](CCC(N)=O)NC(=O)[C@H]([C@@H](C)O)NC(=O)[C@@H]2CCCN2C(=O)[C@@H]2CCCN2C1 [3BP-3949] is ____.
< 10 nM

// query IC50 value for entry CCCCCC(=O)N[C@H]1CSCc2cc(CSCCNC(=O)CN(CCN(CC(=O)O)CC(=O)O)CCN(CC(=O)O)CC(=O)O)cc(c2)CSC[C@@H](C(=O)O)NC(=O)[C@H](Cc2ccccc2)NC(=O)[C@H](CCC(N)=O)NC(=O)[C@H]([C@@H](C)O)NC(=O)[C@@H]2CCCN2C(=O)[C@@H]2CCCN2C1=O [3BP-4214]
10 to 79.4 nM

Reported IC50 for CCCCCC(=O)N[C@H]1CSCc2cc(CSCCNC(=O)CCC(=O)NCCCOCCOCCOCCCNC(=O)CCP(=O)(O)CN3CCN(CP(=O)(O)CO)CCN(CP(=O)(O)CO)CC3)cc(c2)CSC[C@@H](C(=O)O)NC(=O)[C@H](Cc2ccccc2)NC(=O)[C@H](CCC(N)=O)NC(=O)[C@H]([C@@H](C)O)NC(=O)[C@@H]2CCCN2C(=O)[C@@H]2CCCN2C1=O [3BP-4385] : what is it?
10 to 79.4 nM

Suppose we examine the molecule CCCCCC(=O)N[C@H]1CSCc2cc(cc(CN3CCN(C(=O)CN4CCN5CCN6CCN(CC4)CC(=O)[O][In]([O]C(=O)C6)[O]C(=O)C5)CC3)c2)CSC[C@@H](C(=O)O)NC(=O)[C@H](Cc2ccccc2)NC(=O)[C@H](CCC(N)=O)NC(=O)[C@H]([C@@H](C)O)NC(=O)[C@@H]2CCCN2C(=O)[C@@H]2CCCN2C1=O [3BP-3770] ; what IC50 value has been reported?
< 10 nM

What does the data say about its IC50? Entry: CCCC[C@H](NC(=O)CCC(=O)NCCCOCCOCCOCCCNC(=O)[C@H](CCC(=O)NC[C@H](O)[C@@H](O)[C@H](O)[C@H](O)CO)NC(=O)C(CNCCN)CNCCN)C(=O)N[C@H]1CSCc2cccc(c2)CSC[C@@H](C(=O)O)NC(=O)[C@H](Cc2ccccc2)NC(=O)[C@H](CCC(=O)O)NC(=O)[C@H]([C@@H](C)O)NC(=O)[C@@H]2CCCN2C(=O)[C@@H]2CCCN2C1=O [3BP-4246] ({X24-Suc}-[Nle]CPPTEFC-OH; linker 2-8 via mXylylene)
10 to 79.4 nM

Would you kindly share the measured IC50 for CCCCCC(=O)N[C@H]1CSCc2cc(CSCCNC(=O)CN3CCN4CCN(CC(=O)O)CCN(CC3)CC(=O)[O][Cu][O]C(=O)C4)cc(c2)CSC[C@@H](C(=O)O)NC(=O)[C@H](Cc2ccccc2)NC(=O)[C@H](CCC(N)=O)NC(=O)[C@H]([C@@H](C)O)NC(=O)[C@@H]2CCCN2C(=O)[C@@H]2CCCN2C1 [3BP-4293] ?
< 10 nM

I am curious: what IC50 value has been reported for CCCCCC(=O)N[C@H]1CSCc2cc(cc(CN3CCN(C(=O)CN4CCN5CCN6CCN(CC4)CC(=O)[O][Eu]([O]C(=O)C6)[O]C(=O)C5)CC3)c2)CSC[C@@H](C(=O)N[C@@H](CC(=O)O)C(N)=O)NC(=O)[C@H](Cc2ccccc2)NC(=O)[C@H](CCC(N)=O)NC(=O)[C@H]([C@@H](C)O)NC(=O)[C@@H]2CCCN2C(=O)[C@@H]2CCCN2C1 [3BP-3661] ?
< 10 nM

For CCCC(NC(=O)CCC(=O)NCCCOCCOCCOCCCNC(=O)CN1CCN(CC(=O)O)CCN(CC(=O)O)CCN(CC(=O)O)CC1)C(=O)N[C@H]1CSCc2cc(CSCCNC(=O)CN3CCN(CC(=O)O)CCN(CC(=O)O)CCN(CC(=O)O)CC3)cc(c2)CSC[C@@H](C(=O)O)NC(=O)[C@H](Cc2ccccc2)NC(=O)[C@H](CCC(N)=O)NC(=O)[C@H]([C@@H](C)O)NC(=O)[C@@H]2CCCN2C(=O)[C@@H]2CCCN2C1=O (some centres unmarked) [3BP-4386] , what is its reported IC50?
10 to 79.4 nM

Could you share which IC50 value was measured for CCCC[C@H](NC(=O)CCC(=O)NCCCOCCOCCOCCCNC(=O)C(CNCCN)CNCCN)C(=O)N[C@H]1CSCc2cccc(c2)CSC[C@@H](C(=O)O)NC(=O)[C@H](Cc2ccncc2)NC(=O)[C@H](CCC(=O)O)NC(=O)[C@H]([C@@H](C)O)NC(=O)[C@@H]2CCCN2C(=O)[C@@H]2CCCN2C1=O [3BP-4223] ({X12-Suc}-[Nle]CPPTE[4Pal]C-OH; linker 2-8 via mXylylene) ?
100 to 794 nM

----------
Record form. Attribute: IC50. Fill in for each entry.
Biological target: FAP-expressing human WI-38 fibroblasts (Homo sapiens)
Construct: FAP-expressing human WI-38 fibroblasts (ECACC) were cultured in EMEM; host or cells: WI-38 human fibroblasts
Sequence (Q12884 whole entry): as above
Test: Competitive FACS binding assay
Conditions: pIC50 Category (FACS), competition with 3 nM Cy5-labeled compound, 4° C., 1 hour
Numbered stars: 1 amine (or outer) side, 2 acyl side, 3 side chain; on linkers, the order of the positions; unused ones are H or OH. Bridge positions count the residues as written; N and C are the ends. Square brackets hold non-standard residues; d marks the D form. Peptide text beside a SMILES is read from it. * marks the point of attachment. X1 = O=C(O)CN1CCN(CC(=O)O)CCN(CC(=O)N2CCN(Cc3cc(C[*:1])cc(C[*:2])c3)CC2)CCN(CC(=O)O)CC1; γGlu = O=C(O)[C@H](CCC(=O)[*:2])N[*:1]; mXylylene = c1cc(C[*:1])cc(C[*:2])c1; Pentanesulfonyl = CCCCCS(=O)(=O)*; X18 = NCCNCC(CNCCN)C(=O)*; Nle = CCCC[C@H](N)C(=O)O

Fill in: IC50 of CCCCCC(=O)N[C@H]1CSCc2cc(CSCCNC(=O)COCCOCCNC(=O)CN(CCN(CC(=O)O)CC(=O)O)CCN(CC(=O)O)CC(=O)O)cc(c2)CSC[C@@H](C(=O)O)NC(=O)[C@H](Cc2ccccc2)NC(=O)[C@H](CCC(N)=O)NC(=O)[C@H]([C@@H](C)O)NC(=O)[C@@H]2CCCN2C(=O)[C@@H]2CCCN2C1=O is ___
10 to 79.4 nM

Param item = CCCCCC(=O)N[C@H]1CSCc2cc(CSCCNC(=O)CN3CCN(CC(=O)O)CCN(CC(=O)O)CC3)cc(c2)CSC[C@@H](C(=O)O)NC(=O)[C@H](Cc2ccccc2)NC(=O)[C@H](CCC(N)=O)NC(=O)[C@H]([C@@H](C)O)NC(=O)[C@@H]2CCCN2C(=O)[C@@H]2CCCN2C1=O ; retrieve measured IC50.
< 10 nM

Which IC50 value is on record for CCCCCC(=O)N[C@H]1CSCc2cc(CSCCN)cc(c2)CSC[C@@H](C(=O)O)NC(=O)[C@H](Cc2ccccc2)NC(=O)[C@H](CCC(N)=O)NC(=O)[C@H]([C@@H](C)O)NC(=O)[C@@H]2CCCN2C(=O)[C@@H]2CCCN2C1=O ?
100 to 794 nM

Requested field: IC50. Item: CCCC[C@H](NC(=O)CC[C@H](NC(=O)C(CNCCN)CNCCN)C(=O)O)C(=O)N[C@H]1CSCc2cccc(c2)CSC[C@@H](C(=O)O)NC(=O)[C@H](Cc2ccccc2)NC(=O)[C@H](CCC(=O)O)NC(=O)[C@H]([C@@H](C)O)NC(=O)[C@@H]2CCCN2C(=O)[C@@H]2CCCN2C1=O [3BP-4230] ({X18-γGlu}-[Nle]CPPTEFC-OH; linker 2-8 via mXylylene)
> 1000 nM

Find the recorded IC50 belonging to CCCCCC(=O)N[C@H]1CSCc2cc(CSCCNC(=O)CCOCCOCCOCCOCCOCCOCCNC(=O)C(CNCCN)CNCCN)cc(c2)CSC[C@@H](C(=O)O)NC(=O)[C@H](Cc2ccccc2)NC(=O)[C@H](CCC(N)=O)NC(=O)[C@H]([C@@H](C)O)NC(=O)[C@@H]2CCCN2C(=O)[C@@H]2CCCN2C1=O and report it.
10 to 79.4 nM

Which IC50 is reported for this compound? CCCCCS(=O)(=O)N[C@H]1CSCc2cc(cc(CN3CCN(C(=O)CN4CCN(CC(=O)O)CCN(CC(=O)O)CCN(CC(=O)O)CC4)CC3)c2)CSC[C@@H](C(=O)N[C@@H](CC(=O)O)C(=O)O)NC(=O)[C@H](Cc2ccccc2)NC(=O)[C@H](CCC(N)=O)NC(=O)[C@H]([C@@H](C)O)NC(=O)[C@@H]2CCCN2C(=O)[C@@H]2CCCN2C1=O [3BP-3692] (Pentanesulfonyl-CPPTQFCD-OH; linker 1-7 via X1)
< 10 nM
